- Test system: SW-620
- Assay Name: NCI tumour cell line growth inhibition, 48 h
Calls of active or inactive are those of the source. Rule as the data show it: active = GI50 up to about 1.1 µM and inactive = higher.
Respond with a class label; see Yes = active, No = inactive

Sample answers from the record:
| Compound | Class Name |
| --- | --- |
| C[C@@H]1OC(=O)C[C@H]2CC(=O)N(CCC3CN(S(=O)(=O)C(F)(F)F)c4ccccc43)C[C@@H]21 (stereo not given in full) | No |
| COC(=O)[C@]1(C)CCC[C@@]2(C)[C@@H]3C[C@@H]4[C@H]5C[C@@]3(CC[C@@H]21)C[C@@]45C | No |
| CCCCCC(O)(CCCCC)CCCCCCCCC1=C(O)C(=O)c2ccccc2C1=O | No |

In: Give the logged outcome of this assay for the following compound: "C/C(=N\Nc1nc2ccccc2o1)c1ncccn1"
Out: Yes

In: What call does the record list for "CCCCCCCCCCCCC(=O)CCCCC(=O)O" ?
Out: No
